- experimentalTarget: Recombinant human JARID1B/KDM5B (Homo sapiens, UniProt Q9UGL1)
- Construct: purchased Active Motif 31432; host or cells: Sf9 insect cells
- Sequence (Q9UGL1 whole entry): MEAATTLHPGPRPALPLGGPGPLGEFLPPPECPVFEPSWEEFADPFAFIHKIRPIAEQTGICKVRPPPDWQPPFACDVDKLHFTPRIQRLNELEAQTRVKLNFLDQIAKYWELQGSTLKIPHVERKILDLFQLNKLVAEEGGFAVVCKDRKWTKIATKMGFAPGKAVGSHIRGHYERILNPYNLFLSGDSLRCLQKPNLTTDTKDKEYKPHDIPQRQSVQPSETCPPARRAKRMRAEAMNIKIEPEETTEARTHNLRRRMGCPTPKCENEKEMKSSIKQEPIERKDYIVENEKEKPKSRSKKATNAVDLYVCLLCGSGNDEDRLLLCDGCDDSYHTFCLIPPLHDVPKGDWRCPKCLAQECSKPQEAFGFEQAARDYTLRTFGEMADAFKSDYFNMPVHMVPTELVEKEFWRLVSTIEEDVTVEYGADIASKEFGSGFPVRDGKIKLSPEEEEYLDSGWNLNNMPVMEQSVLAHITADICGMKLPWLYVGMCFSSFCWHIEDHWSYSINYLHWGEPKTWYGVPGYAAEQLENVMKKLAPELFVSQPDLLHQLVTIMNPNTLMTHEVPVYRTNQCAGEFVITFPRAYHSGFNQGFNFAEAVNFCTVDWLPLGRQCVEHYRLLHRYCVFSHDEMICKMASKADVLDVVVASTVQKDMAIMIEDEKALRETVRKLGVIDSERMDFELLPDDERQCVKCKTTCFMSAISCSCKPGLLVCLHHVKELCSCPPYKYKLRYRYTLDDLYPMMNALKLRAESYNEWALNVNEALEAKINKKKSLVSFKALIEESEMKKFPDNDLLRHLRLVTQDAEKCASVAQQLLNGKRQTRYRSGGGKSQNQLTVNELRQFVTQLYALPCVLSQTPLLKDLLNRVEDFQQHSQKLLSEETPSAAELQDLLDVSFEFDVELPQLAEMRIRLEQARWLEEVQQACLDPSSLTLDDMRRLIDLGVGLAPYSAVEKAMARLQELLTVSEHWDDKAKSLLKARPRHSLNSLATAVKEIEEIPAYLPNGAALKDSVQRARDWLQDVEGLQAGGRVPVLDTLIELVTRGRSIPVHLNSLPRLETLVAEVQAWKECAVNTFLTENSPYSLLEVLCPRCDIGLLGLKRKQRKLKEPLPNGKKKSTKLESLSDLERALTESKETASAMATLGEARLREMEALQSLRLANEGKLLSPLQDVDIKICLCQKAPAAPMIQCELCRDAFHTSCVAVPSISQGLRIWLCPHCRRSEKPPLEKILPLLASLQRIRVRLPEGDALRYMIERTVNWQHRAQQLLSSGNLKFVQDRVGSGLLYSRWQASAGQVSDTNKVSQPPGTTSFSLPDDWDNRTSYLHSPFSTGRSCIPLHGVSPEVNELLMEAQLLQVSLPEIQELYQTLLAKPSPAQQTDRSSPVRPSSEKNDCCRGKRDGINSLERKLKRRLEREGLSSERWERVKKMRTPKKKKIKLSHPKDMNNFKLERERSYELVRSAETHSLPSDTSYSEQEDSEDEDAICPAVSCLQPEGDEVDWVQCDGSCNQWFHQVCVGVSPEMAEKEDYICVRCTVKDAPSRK
- measurementNotes: LANCE Ultra TR-FRET demethylase assay with FLAG-tagged JARID1B
- Assay type: biochemical
- settings: 100 nM compound; 500 nM biotinylated H3K4me3 peptide substrate
- Source text: FLAG-tagged JARID1B (also known as KDM5B) protein was screened against more than 170 compounds. For this compound screening, LANCE Ultra time-resolved fluorescence resonance energy transfer (TR-FRET) assay was employed using an europoium (Eu)-labeled antibody that can specifically recognize mono- or dimethylated peptides (H3K4me2/1) and ULight-streptavidin (ULight-SA), a small molecule fluorescent dye. […]
endpoint: inhibition at 0.1 µM

Cc1cc(OCc2nc3c(CNCC4CCNCC4)nccc3c(=O)[nH]2)ccc1Cl ... 20 to 50%
C[C@@H](Oc1ccc(Cc2ccccc2)cc1)c1nc2c(CNCC3CCN(C)CC3)nccc2c(=O)[nH]1 ... > 50%
CN(C)C(=O)c1ccc(CNCc2nccc3c(=O)[nH]c(COc4ccc(F)c(Cl)c4)nc23)o1 ... 20 to 50%

With those in mind, consider the next compound.
Enquiry: Returns the measured inhibition at 0.1 µM for the input compound. Input: `O=c1[nH]c(COc2cccc(Cl)c2)nc2c(CNCC3CCN(Cc4ccccc4)CC3)nccc12`
Return: > 50%

* * *

- experimentalTarget: Recombinant human JARID1B/KDM5B (Homo sapiens)
- Construct: purchased Active Motif 31432; host or cells: Sf9 insect cells
- measurementNotes: LANCE Ultra TR-FRET demethylase assay with FLAG-tagged JARID1B
- Type: biochemical
- settings: 100 nM compound; 500 nM biotinylated H3K4me3 peptide substrate
Measured inhibition at 0.1 µM by item

Enquiry: Need inhibition at 0.1 µM, item `CN1CCC(CNCc2nccc3c(=O)[nH]c(C4Cc5ccccc5C4)nc23)CC1`
Return: < 20%

Enquiry: Another compound to look at: `Cc1nccn1CCNCc1nccc2c(=O)[nH]c(COc3ccc(F)c(Cl)c3)nc12`
Return: 20 to 50%

Enquiry: Try the compound `O=c1[nH]c(COCc2ccccc2)nc2c(CNCC3CCNCC3)nccc12`
Return: 20 to 50%

* * *

- experimentalTarget: Recombinant human JARID1B/KDM5B (Homo sapiens, UniProt Q9UGL1)
- Construct: purchased Active Motif 31432; host or cells: Sf9 insect cells
- measurementNotes: LANCE Ultra TR-FRET demethylase assay with FLAG-tagged JARID1B
- Format: biochemical
- settings: 100 nM compound; 500 nM biotinylated H3K4me3 peptide substrate
endpoint: inhibition at 0.1 µM

O=c1[nH]c(COc2ccc(F)c(Cl)c2)nc2c(CNC[C@@H]3CNCCO3)nccc12 ... > 50%
Cc1cccc(OCc2nc3c(CNCC4CCNCC4)nccc3c(=O)[nH]2)c1 ... 20 to 50%
N#Cc1ccc(OCc2nc3c(CNCC4CCNCC4)nccc3c(=O)[nH]2)cc1 ... 20 to 50%

Enquiry: // fetch Recombinant human JARID1B/KDM5B (Homo sapiens, UniProt Q9UGL1) inhibition at 0.1 µM for `O=c1[nH]c(COc2cccnc2)nc2c(CNCC3CCN(Cc4ccccc4)CC3)nccc12`
Return: 20 to 50%

* * *

- experimentalTarget: Recombinant human JARID1B/KDM5B (Homo sapiens)
- Construct: purchased Active Motif 31432; host or cells: Sf9 insect cells
- measurementNotes: LANCE Ultra TR-FRET demethylase assay with FLAG-tagged JARID1B
- Format: biochemical
- settings: 100 nM compound; 500 nM biotinylated H3K4me3 peptide substrate
Quick reference for inhibition at 0.1 µM among some compounds

Look over these answered cases.
CCN(CCN(C)C)C(=O)CNCc1nccc2c(=O)[nH]c(COc3ccc(F)c(Cl)c3)nc12 [Example 221] ... > 50%
O=c1[nH]c(COc2ccc(F)c(Cl)c2)nc2c(CNCC3CCCOC3)nccc12 (centres unmarked) [Example 162] ... < 20%
O=c1[nH]c(COc2cccc(Cl)c2)nc2c(CNCC3CCNCC3)nccc12 [Example 132] ... > 50%
O=c1[nH]c(C2CCc3ccccc3O2)nc2c(CNCC3CCNCC3)nccc12 (centres unmarked) [Example 199] ... < 20%
O=C(CNCc1nccc2c(=O)[nH]c(COc3ccc(F)c(Cl)c3)nc12)N1CCCC1 [Example 223] ... 20 to 50%

Enquiry: Need inhibition at 0.1 µM, item O=C(CNCc1nccc2c(=O)[nH]c(COc3ccc(F)c(Cl)c3)nc12)NC1CCN(Cc2ccccc2)C1 (centres unmarked) [Example 232]
Return: > 50%

Enquiry: Queued: CCN1CCC[C@H]1CNCc1nccc2c(=O)[nH]c(COc3ccc(Cc4ccccc4)cc3)nc12 [Example 146]
Return: 20 to 50%

Enquiry: Let us now turn to O=c1[nH]c(COc2cccc(CNC3CCOCC3)c2)nc2cnccc12 [Example 44]
Return: < 20%
